Entries and their IC50 values follow.
test system: MDA-MB-231; assay: Cell viability assay (MTS), antiproliferative activity; format: cell-based; conditions: Homo sapiens, 72 h, Table 6
Record the value in µM, omitting the unit from your answer.

As a guide, the following entries are already answered.
Cc1c(O)c(=O)ccn1C1CCC(CC2CCC(n3ccc(=O)c(O)c3C)CC2)CC1 (stereo not shown) [3g]; 3.5
Cc1c(O)c(=O)ccn1Cc1ccc(Cn2ccc(=O)c(O)c2C)cc1 [3f]; 25

Now, please, on to the next compound.
IN: Using the record for Cc1c(O)c(=O)ccn1[C@H]1CC[C@H](n2ccc(=O)c(O)c2C)CC1 [3e] , state its measured IC50.
OUT: 36.9

====

molecular target: KDM7B (PHF8) (Homo sapiens, UniProt Q9UPP1)
Sequence (Q9UPP1 whole entry): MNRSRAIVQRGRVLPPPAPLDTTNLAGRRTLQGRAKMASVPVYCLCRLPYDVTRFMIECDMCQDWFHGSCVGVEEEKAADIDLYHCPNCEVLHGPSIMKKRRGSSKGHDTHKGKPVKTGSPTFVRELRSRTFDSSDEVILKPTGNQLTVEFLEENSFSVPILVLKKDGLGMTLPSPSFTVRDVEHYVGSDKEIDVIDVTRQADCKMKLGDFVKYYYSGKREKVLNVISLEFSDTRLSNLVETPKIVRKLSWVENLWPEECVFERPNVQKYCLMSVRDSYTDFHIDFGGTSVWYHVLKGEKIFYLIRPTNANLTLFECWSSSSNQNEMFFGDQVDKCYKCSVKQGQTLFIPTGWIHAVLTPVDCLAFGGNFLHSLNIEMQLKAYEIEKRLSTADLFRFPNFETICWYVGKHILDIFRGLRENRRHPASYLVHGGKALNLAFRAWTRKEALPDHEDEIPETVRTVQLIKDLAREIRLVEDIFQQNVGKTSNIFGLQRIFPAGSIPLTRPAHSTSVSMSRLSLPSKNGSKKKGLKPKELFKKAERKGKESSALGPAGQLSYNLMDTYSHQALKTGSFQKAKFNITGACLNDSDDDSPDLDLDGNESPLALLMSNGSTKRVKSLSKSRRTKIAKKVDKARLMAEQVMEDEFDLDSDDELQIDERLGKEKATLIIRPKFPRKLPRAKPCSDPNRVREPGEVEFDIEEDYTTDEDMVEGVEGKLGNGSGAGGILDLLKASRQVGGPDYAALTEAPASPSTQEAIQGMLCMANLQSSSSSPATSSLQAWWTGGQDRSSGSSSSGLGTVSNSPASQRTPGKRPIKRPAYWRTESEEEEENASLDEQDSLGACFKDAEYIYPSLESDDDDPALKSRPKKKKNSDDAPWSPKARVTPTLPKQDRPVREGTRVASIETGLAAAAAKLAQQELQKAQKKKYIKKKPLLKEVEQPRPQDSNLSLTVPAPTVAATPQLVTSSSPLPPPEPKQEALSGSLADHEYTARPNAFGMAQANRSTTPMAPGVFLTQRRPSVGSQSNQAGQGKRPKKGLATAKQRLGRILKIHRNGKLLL
measurement_label: pIC50
# reply with the number alone; pIC50 is -log10 of concentration in mol/L

IN: Using the record for Cc1c(O)c(=O)ccn1C , state its measured pIC50.
OUT: 4.81

====

target: KDM6A (UTX) (Homo sapiens, UniProt O15550); construct: purchased BPS Bioscience; assay: KDM cell-free assay (AlphaScreen, BPS Bioscience); type: biochemical; details: Fig. 9A; read-out: IC50 (KDM6A inhibition dose response curve)
Sequence (O15550 whole entry): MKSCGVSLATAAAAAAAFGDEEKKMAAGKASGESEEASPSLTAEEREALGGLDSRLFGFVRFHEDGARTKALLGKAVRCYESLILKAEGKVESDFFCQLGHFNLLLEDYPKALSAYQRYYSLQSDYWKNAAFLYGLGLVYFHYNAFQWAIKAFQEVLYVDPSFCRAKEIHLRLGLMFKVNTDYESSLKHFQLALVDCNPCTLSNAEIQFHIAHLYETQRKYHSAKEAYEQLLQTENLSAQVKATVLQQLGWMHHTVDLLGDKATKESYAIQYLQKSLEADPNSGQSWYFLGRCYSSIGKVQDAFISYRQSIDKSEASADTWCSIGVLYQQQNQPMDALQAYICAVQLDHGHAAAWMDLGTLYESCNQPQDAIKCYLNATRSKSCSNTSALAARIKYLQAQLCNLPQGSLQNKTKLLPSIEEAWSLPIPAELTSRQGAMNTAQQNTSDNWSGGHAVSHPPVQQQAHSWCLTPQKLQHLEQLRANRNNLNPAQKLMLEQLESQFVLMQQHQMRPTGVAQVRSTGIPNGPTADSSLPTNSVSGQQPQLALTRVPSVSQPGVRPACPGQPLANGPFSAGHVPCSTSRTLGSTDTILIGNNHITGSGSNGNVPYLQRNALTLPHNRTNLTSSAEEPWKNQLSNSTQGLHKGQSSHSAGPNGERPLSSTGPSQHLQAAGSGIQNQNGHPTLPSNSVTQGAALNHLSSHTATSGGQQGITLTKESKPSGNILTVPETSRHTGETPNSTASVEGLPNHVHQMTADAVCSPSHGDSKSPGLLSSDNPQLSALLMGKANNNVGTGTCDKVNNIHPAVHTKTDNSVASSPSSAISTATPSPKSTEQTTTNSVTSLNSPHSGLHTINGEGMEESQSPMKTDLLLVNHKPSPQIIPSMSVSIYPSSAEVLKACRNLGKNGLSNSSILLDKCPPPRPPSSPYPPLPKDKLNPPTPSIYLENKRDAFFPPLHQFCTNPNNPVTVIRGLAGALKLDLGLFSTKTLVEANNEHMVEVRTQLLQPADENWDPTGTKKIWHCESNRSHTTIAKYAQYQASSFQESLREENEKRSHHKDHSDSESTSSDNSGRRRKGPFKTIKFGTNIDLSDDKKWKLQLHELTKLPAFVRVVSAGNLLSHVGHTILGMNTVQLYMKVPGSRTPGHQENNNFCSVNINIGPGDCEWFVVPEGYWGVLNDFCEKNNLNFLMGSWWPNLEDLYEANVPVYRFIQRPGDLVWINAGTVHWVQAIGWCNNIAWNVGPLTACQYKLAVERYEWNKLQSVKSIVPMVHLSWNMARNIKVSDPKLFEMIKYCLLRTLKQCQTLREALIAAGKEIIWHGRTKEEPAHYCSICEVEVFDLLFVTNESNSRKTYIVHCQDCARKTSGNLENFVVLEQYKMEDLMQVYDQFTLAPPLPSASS
Entries and their pIC50 values follow.
# reply with the number alone; pIC50 is -log10 of concentration in mol/L

Cc1c(O)c(=O)ccn1CCCCCCn1cc(-c2ccc(-c3ccncc3)cc2)nn1; 5.29

IN: Using the record for Cc1c(O)c(=O)ccn1CCCCCn1cc(-c2ccccc2)nn1 , state its measured pIC50.
OUT: 5.48

IN: Using the record for Cc1c(O)c(=O)ccn1C1CCC(CC2CCC(n3ccc(=O)c(O)c3C)CC2)CC1 (stereo not shown) , state its measured pIC50.
OUT: 5.77

IN: Using the record for COc1cccc(-c2cn(CCCCCn3ccc(=O)c(O)c3C)nn2)c1 , state its measured pIC50.
OUT: 5.49

====

molecular target: KDM4D (JMJD2D) (Homo sapiens, UniProt Q6B0I6)
Sequence (Q6B0I6 whole entry): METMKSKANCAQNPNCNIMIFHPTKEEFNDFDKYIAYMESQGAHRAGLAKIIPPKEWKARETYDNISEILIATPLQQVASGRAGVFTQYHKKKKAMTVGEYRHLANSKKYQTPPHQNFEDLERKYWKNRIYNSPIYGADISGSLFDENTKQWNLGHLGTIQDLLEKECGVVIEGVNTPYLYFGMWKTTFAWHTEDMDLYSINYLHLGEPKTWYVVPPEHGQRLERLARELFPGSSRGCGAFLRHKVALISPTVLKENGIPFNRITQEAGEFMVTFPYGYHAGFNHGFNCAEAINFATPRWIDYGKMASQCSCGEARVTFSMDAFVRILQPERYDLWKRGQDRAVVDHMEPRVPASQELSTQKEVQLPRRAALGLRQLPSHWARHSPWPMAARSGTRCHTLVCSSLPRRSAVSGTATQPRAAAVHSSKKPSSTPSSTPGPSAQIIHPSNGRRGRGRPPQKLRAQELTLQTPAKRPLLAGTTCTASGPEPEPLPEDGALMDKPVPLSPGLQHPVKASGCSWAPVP
pIC50: −log10 of the molar value.
measurement_label: pIC50

IN: Using the record for Cc1c(O)c(=O)ccn1C [DFP, Deferiprone] , state its measured pIC50.
OUT: < 4.60

====

Entries and their pIC50 values follow.
test system: VERO; assay: Cell viability assay (MTS), antiproliferative activity; format: cell-based; details: Chlorocebus sabaeus, 72 h, Table 4
pIC50: −log10 of the molar value.

As a guide, the following entries are already answered.
Cc1c(O)c(=O)ccn1CCCCCn1cc(-c2ccccc2)nn1 [1d]; < 4.30
Cc1c(O)c(=O)ccn1CCCCCCn1cc(-c2ccccc2)nn1 [1e]; < 4.46
Cc1c(O)c(=O)ccn1CCn1cc(-c2ccccc2)nn1 [1a]; < 4.00

IN: Look up VERO data: pIC50 of Cc1c(O)c(=O)ccn1C [DFP, Deferiprone] , then report it.
OUT: 4.07

====

Molecular target: KDM4C (JMJD2C) (Homo sapiens)
Sequence (Q9H3R0 1-1056): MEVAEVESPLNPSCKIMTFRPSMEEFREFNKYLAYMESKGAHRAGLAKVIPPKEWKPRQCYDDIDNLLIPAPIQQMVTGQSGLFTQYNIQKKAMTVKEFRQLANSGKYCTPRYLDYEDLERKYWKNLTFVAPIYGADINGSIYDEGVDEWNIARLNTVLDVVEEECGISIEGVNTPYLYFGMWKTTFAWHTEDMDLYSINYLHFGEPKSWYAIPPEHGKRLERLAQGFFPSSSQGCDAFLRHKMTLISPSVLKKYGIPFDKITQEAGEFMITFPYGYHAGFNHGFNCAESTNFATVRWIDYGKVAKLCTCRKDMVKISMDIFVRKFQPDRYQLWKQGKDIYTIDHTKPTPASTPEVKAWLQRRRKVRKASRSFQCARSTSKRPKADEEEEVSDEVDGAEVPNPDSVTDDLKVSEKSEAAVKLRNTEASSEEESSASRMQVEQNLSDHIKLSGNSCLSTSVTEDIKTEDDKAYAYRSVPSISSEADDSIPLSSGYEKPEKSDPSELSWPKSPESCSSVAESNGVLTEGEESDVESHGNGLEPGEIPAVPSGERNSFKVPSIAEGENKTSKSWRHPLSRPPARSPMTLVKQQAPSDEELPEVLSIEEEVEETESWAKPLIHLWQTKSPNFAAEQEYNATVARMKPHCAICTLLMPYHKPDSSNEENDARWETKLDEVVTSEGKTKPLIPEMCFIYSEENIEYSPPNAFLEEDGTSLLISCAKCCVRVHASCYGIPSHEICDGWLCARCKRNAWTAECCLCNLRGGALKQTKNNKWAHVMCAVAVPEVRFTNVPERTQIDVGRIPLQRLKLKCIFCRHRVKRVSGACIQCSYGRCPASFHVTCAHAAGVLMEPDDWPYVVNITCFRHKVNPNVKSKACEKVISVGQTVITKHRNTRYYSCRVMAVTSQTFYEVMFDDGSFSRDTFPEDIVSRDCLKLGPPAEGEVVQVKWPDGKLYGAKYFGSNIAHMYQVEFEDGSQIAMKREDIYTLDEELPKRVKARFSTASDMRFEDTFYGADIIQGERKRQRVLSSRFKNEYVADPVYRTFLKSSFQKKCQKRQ
measurement_label: IC50

IN: Using the record for Cc1c(O)c(=O)ccn1C [DFP, Deferiprone] , state its measured IC50.
OUT: > 25 µM
